# PROTOCOL DETAILS: Rodent pharmacokinetic study
# Type: in vivo, Male Wistar rats
# CONDITION NOTES: male, Wistar, iv; rat, i.v. 1 mg/kg, plasma
ENDPOINT NAME: half-life (h)
Kindly provide the numeric value in h only, without the unit symbol.

In plain terms, O=C(N[C@H]1CCCC[C@@H]1O)c1cc(Cc2ccc(Br)c(F)c2)c2cccnn12 has a documented half-life of 3.5

In plain terms, COc1ccc(Cc2cc(C(=O)N[C@H]3CCCC[C@@H]3O)n3ncccc23)cc1 has a documented half-life of 2.7

In plain terms, O=C(N[C@H]1CCCC[C@@H]1O)c1cc(Cc2ccc(-n3cccn3)cc2)c2cccnn12 has a documented half-life of 2.5

In plain terms, Cn1cc(-c2ccc(Cc3cc(C(=O)N[C@H]4CCCC[C@@H]4O)n4ncccc34)cc2)cn1 has a documented half-life of 3.2

====

bioavailability: recorded values
# PROTOCOL DETAILS: Rodent pharmacokinetic study
# Assay type: in vivo, Male Wistar rats
# CONDITION NOTES: male, Wistar, plasma; rat, oral 3 mg/kg vs i.v. 1 mg/kg, bioavailability
Kindly provide the numeric value in % only, without the unit symbol.

Here's what some known entries look like.
| MOLECULE | RECORDED MEASUREMENT |
| --- | --- |
| COc1ccc(Cc2cc(C(=O)N[C@H]3CCCC[C@@H]3O)n3ncccc23)cc1 [Example 20] | 39 |
| Cn1cc(-c2ccc(Cc3cc(C(=O)N[C@H]4CCCC[C@@H]4O)n4ncccc34)c(F)c2)cn1 [Example 34] | 66 |
| O=C(N[C@H]1CCCC[C@@H]1O)c1cc(Cc2ccc3c(c2)CCO3)c2cccnn12 [Example 4] | 25 |
| O=C(N[C@H]1CCCC[C@@H]1O)c1cc(Cc2ccc(Br)c(F)c2)c2cccnn12 [Example 3] | 49 |
| O=C(N[C@H]1CCCC[C@@H]1O)c1cc(Cc2ccc(-n3cccn3)cc2)c2cccnn12 [Example 21] | 49 |
| Cn1cc(-c2ccc(Cc3cc(C(=O)N[C@H]4CCCC[C@@H]4O)n4ncccc34)cc2)cn1 [Example 32] | 50 |

Now look at this one.
In plain terms, Cn1cc(-c2ccc(Cc3cc(C(=O)N[C@H]4CCCC[C@@H]4O)n4ncccc34)cc2F)cn1 [Example 33] has a documented bioavailability of 103

====

# PROTOCOL DETAILS: Rodent pharmacokinetic study
# Assay type: in vivo, Male Wistar rats
# CONDITION NOTES: male, Wistar, plasma, iv; rat, i.v. 1 mg/kg
Kindly apply the following: Fulfilled if clearance is less than 10 mL/min/kg, Not fulfilled in every other case.

| MOLECULE SMILES | LABEL VALUE |
| --- | --- |
| Cn1cc(-c2ccc(Cc3cc(C(=O)N[C@H]4CCCC[C@@H]4O)n4ncccc34)c(F)c2)cn1 | Fulfilled |
| O=C(N[C@H]1CCCC[C@@H]1O)c1cc(Cc2ccc(Br)c(F)c2)c2cccnn12 | Not fulfilled |
| Cn1cc(-c2ccc(Cc3cc(C(=O)N[C@H]4CCCC[C@@H]4O)n4ncccc34)cc2F)cn1 | Not fulfilled |
| Cn1cc(-c2ccc(Cc3cc(C(=O)N[C@H]4CCCC[C@@H]4O)n4ncccc34)cc2)cn1 | Fulfilled |

Enquiry: Please determine if COc1ccc(Cc2cc(C(=O)N[C@H]3CCCC[C@@H]3O)n3ncccc23)cc1 is below 10 mL/min/kg in terms of clearance.
Return: Not fulfilled

Enquiry: Please determine if O=C(N[C@H]1CCCC[C@@H]1O)c1cc(Cc2ccc3c(c2)CCO3)c2cccnn12 is below 10 mL/min/kg in terms of clearance.
Return: Not fulfilled

Enquiry: Please determine if O=C(N[C@H]1CCCC[C@@H]1O)c1cc(Cc2ccc(-n3cccn3)cc2)c2cccnn12 is below 10 mL/min/kg in terms of clearance.
Return: Fulfilled

Data origin: patent US11234979B2
